ASSAYED SYSTEM: T1, extracellular domain of human PRLR (soluble, monomeric, expressed in HEK293 cells) (human, UniProt P16471 25-234)
T1 construct: also called ECD-PRLR; ECD of PRLR
T1 sequence: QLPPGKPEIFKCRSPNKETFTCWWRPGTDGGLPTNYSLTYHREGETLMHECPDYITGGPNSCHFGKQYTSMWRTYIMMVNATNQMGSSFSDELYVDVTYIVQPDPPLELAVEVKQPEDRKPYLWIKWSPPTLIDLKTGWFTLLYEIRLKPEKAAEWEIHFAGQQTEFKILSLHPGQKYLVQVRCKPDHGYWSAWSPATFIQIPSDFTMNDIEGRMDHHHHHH
PROTOCOL DESCRIPTION: HTRF competition: Fab-containing E. coli supernatant with biotinylated ECD of human PRLR and streptavidin-europium, then Alexa Fluor 647-labelled IgG1 006-H08 as competitor; signal at 665 nm after 5 to 65 min; lower signal than control Fab 006-H08 = improved binding [Figure 21]

BINDER | binding result
006-H08-63-32-4 (Fab, V domains shown, Tested as E. coli supernatant; also called maturated 006-H08 Fab variant; copies: 1 + 1) VH: EVQLLESGGGLVQPGGSLRLSCAASGFTFDDYGMSWVRQAPGKGLEWVAVISYDGSNKYYADSVKGRFTISRDNSQNTLYLQMNSLRAEDTAVYYCASPLESPVAFDIWGQGTLVTVSS VL: QSVLTQPPSASGTPGQRVTISCSGLNSNIGSNPVNWYQQLPGTAPKLLIYDNNKRPSGVPDRFSGSKSGTSASLAISGLRSEDEADYYCQSYDTGLSGWVFGGGTKLTVL | binds
006-H08-65-33-2 (Fab, V domains shown, Tested as E. coli supernatant; also called maturated 006-H08 Fab variant; copies: 1 + 1) VH: EVQLLESGGGLVQPGGSLRLSCAASGFTFDDYGMSWVRQAPGKGLEWVAVISYDGSNKYYADSVKGRFTISRDNSQNTLYLQMNSLRAEDTAVYYCASPLESPVAFDIWGQGTLVTVSS VL: QSVLTQPPSASGTPGQRVTISCSGSNDNIGSNPVNWYQQLPGTAPKLLIYDNNKRPSGVPDRFSGSKSGTSASLAISGLRSEDEADYYCQSYDTGLSGWVFGGGTKLTVL | binds
006-H08-35-17-4 (Fab, V domains shown, Tested as E. coli supernatant; also called maturated 006-H08 Fab variant; copies: 1 + 1) VH: EVQLLESGGGLVQPGGSLRLSCAASGFTFDDYGMSWVRQAPGKGLEWVAVISYDGSNKYYADSVKGRFTISRDNSQNTLYLQMNSLRAEDTAVYYCASPLESPVAFDIWGQGTLVTVSS VL: QSVLTQPPSASGTPGQRVTISCSGSNSNIGSNPVNWYQQLPGTAPKLLIYDNNKRPSGVPDRFSGSKSGTSASLAISGLRSEDEADYYCQSYDTGSSGWVFGGGTKLTVL | binds
